Values compiled from ChEMBL document CHEMBL1201862.

Each record here notes measured GI50.
System: SK-MEL-28
Assay: NCI tumour cell line growth inhibition, 48 h
Calls of active or inactive are those of the source. Rule as the data show it: active = GI50 up to about 1.1 µM and inactive = higher.

>>> observed_result("CC(=O)OC1=c2ccccc2=C(O)C2C1C=NN2C(C)=O (stereo not given)")
"> 100 µM (inactive)"

Ask: Fill in the recorded GI50 for this compound, with SK-MEL-28 as test system: CNc1ncnc2c1nnn2C
Result: > 100 µM (inactive)

Ask: Fill in the recorded GI50 for this compound, with SK-MEL-28 as test system: Cn1c2ccccc2c(=NNc2cccc(C(=O)O)c2)c2ccccc21
Result: 19.2 µM (inactive)

Ask: Fill in the recorded GI50 for this compound, with SK-MEL-28 as test system: CC(C)c1ccc(C(c2c(O)oc3ccccc3c2=O)c2c(O)oc3ccccc3c2=O)cc1
Result: 18.9 µM (inactive)

Ask: Fill in the recorded GI50 for this compound, with SK-MEL-28 as test system: Cc1ccc(C(=O)/C=C2/Nc3ccccc3NC2=O)c(C)c1
Result: 14.7 µM (inactive)

Ask: Fill in the recorded GI50 for this compound, with SK-MEL-28 as test system: Cc1ccc(S(=O)(=O)N/N=C/C(=C/c2ccc(Cl)cc2)CC(/C=N/NS(=O)(=O)c2ccc(C)cc2)=C\c2ccc(Cl)cc2)cc1
Result: 5.52 µM (inactive)

Ask: Fill in the recorded GI50 for this compound, with SK-MEL-28 as test system: Cn1cc2c(n1)c(N/N=C/c1ccccc1)nn1nnnc21
Result: > 100 µM (inactive)

Ask: Fill in the recorded GI50 for this compound, with SK-MEL-28 as test system: CC12CCc3ccccc3C1=NNC(=O)C2 (stereo not given)
Result: > 100 µM (inactive)

Ask: Fill in the recorded GI50 for this compound, with SK-MEL-28 as test system: O=C(/C=N/c1ccccc1C(=O)[O-])c1cccs1.O=C(/C=N/c1ccccc1C(=O)[O-])c1cccs1.[Zn+2]
Result: 39.5 µM (inactive)

Ask: Fill in the recorded GI50 for this compound, with SK-MEL-28 as test system: C=Cc1nc(C#N)c(N)o1
Result: > 100 µM (inactive)

* * *

System: SF-268
Experiment: NCI tumour cell line growth inhibition, 48 h
Activity calls are given as the source filed them. Cut-off read from the data, not from the text of the source: active = GI50 up to about 1.1 µM and inactive = higher.
Respond only with the outcome that fits, drawn from Yes = active, No = inactive

Recorded results for 6 molecules are shown here.
>>> assigned_label("COC1=CC(=O)c2c(O)ccc(O)c2C1=O")
"No"
>>> assigned_label("C[C@@H]1OC2(O)[C@@H]3CCCN3C(=O)N(Cc3ccccc3)N2C1=O (stereo partly drawn)")
"No"
>>> assigned_label("CC[C@@H](C)[C@H](NC(=O)[C@H](Cc1ccccc1)NCC(F)(F)F)C(=O)OC(C)(C)C")
"No"
>>> assigned_label("CCOc1cc(/C=C2/C(C)=NN(c3cccc(Cl)c3)/C2=N/c2nc3ccccc3s2)ccc1O")
"No"
>>> assigned_label("NCC(=O)N1CCN(c2nc(N3CCCC3)c3nc(Cl)c(NCc4ccccc4)nc3n2)CC1")
"No"
>>> assigned_label("CC1(C)OC(=O)C(C#N)=C1/C=C/c1coc2ccc(Cl)cc2c1=O")
"No"

Ask: Hey, what did the test say about COc1ccc2c(c1)NC1(O)c3ccccc3C(=O)C21O (stereo not drawn) ?
Result: No

Ask: Hey, what did the test say about CC(C)(C)OC(=O)CN1CCN(CC(=O)N2CCN(C(=O)OCc3ccccc3)CC2)CCN(CC(=O)OC(C)(C)C)CCN(CC(=O)N2CCN(C(=O)OCc3ccccc3)CC2)CC1 ?
Result: No

Ask: Hey, what did the test say about CCOc1ccc2c(c1)/C(=C(\C(Cl)=C(Cl)Cl)[N+](=O)[O-])N2 ?
Result: No

Ask: Hey, what did the test say about Cc1nnc(N)nc1C/C=C/C(Sc1ccc(Cl)cc1)c1ccccc1 (stereo not drawn) ?
Result: No

Ask: Hey, what did the test say about Cc1cc(S(=O)(=O)Nc2nc(N)nc(N(C)C)n2)c(SCC(=O)O)cc1Cl ?
Result: No

Ask: Hey, what did the test say about C=C(C)C1CC2=C(C(=O)OC)C=C(O2)C(C(=C)C)[C@@H]2OC(=O)/C(=C\C1O)[C@H]2N(C)C (stereo partly drawn) ?
Result: No

Ask: Hey, what did the test say about CCN(CC)CCC(=O)O[C@H]1CC[C@H](CC(C)[C@H]2CC(=O)C(C)C=C(C)[C@H](OC(=O)CCN(CC)CC)C(OC)C(=O)[C@@H](C)CC(C)/C=C/C=C/C=C(C)C(OC)CC3CC[C@H](C)[C@](O)(O3)C(=O)C(=O)N3CCCCC3C(=O)O2)CC1OC (stereo partly drawn) ?
Result: Yes
